Test: Inhibition of Bacillus cereus II metallo-beta-lactamase using nitrocefin as substrate incubated for 5 mins by spectrophotometric analysis
measured-parameter: IC50 (µM)

C[C@@H](NC(=O)Cc1ccccc1)C(=O)SCC(=O)O ... 479
C[C@@H](NC(=O)c1ccccc1)C(=O)SCC(=O)O ... 645

Taken from ChEMBL document CHEMBL5230097.
